tested.target: Ri SAMHD1 (Rhizophagus irregularis, UniProt A0A015K8Z8, D34A)
Construct: full length (no SAM domain), N-terminal His6-tag, pET28a(+), expressed in E. coli T7 Express in M9 medium with Fe or Mn; purified as monomer and tetramer; crystal model residues 11-451
Sequence (A0A015K8Z8 entry or part of it D34A): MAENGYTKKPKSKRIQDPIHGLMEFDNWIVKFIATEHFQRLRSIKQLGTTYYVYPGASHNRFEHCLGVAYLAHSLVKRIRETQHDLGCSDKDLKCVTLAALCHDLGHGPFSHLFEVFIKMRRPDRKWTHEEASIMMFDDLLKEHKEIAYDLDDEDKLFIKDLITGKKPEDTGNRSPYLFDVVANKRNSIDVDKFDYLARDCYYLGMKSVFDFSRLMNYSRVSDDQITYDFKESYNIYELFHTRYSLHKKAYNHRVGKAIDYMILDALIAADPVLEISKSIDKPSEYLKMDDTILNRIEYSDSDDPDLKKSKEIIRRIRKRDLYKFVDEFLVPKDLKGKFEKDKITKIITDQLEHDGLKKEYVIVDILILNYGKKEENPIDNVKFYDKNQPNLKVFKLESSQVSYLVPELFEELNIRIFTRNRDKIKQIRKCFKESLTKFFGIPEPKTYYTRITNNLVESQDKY
protocol.summary: nucleotide-induced tetramerization, glutaraldehyde cross-linking and SDS-PAGE
test.settings: monomer, 2 μM, 1 mM Mn, pH 6.5; allosteric, cooperative
metric: EC50 (µM)
Give bare numbers, in µM.

What is its EC50 for Ri SAMHD1 (Rhizophagus irregularis, UniProt A0A015K8Z8, D34A)? Entry: Nc1nc2c(ncn2[C@H]2C[C@H](O)[C@@H](COP(=O)(O)OP(=O)(O)OP(=O)(O)O)O2)c(=O)[nH]1
235

---

tested.target: Ri SAMHD1 (Rhizophagus irregularis)
Construct: gene RirG_017260; full length (no SAM domain), N-terminal His6-tag, pET28a(+), expressed in E. coli T7 Express in M9 medium with Fe or Mn; purified as monomer and tetramer; crystal model residues 11-451
protocol.summary: nucleotide-induced tetramerization, glutaraldehyde cross-linking and SDS-PAGE
Assay type: binding
test.settings: monomer, 2 μM, 1 mM Mn, pH 6.5; allosteric
metric: EC50 (µM)
Answers are plain numbers, in µM.

What is its EC50 for Ri SAMHD1 (Rhizophagus irregularis)? Entry: Nc1nc2c(ncn2[C@H]2C[C@H](O)[C@@H](COP(=O)(O)OP(=O)(O)OP(=O)(O)O)O2)c(=O)[nH]1
21

---

tested.target: Ri SAMHD1 (Rhizophagus irregularis, UniProt A0A015K8Z8, R42A)
Construct: full length (no SAM domain), N-terminal His6-tag, pET28a(+), expressed in E. coli T7 Express in M9 medium with Fe or Mn; purified as monomer and tetramer; crystal model residues 11-451
Sequence (A0A015K8Z8 entry or part of it R42A): as the sequence (A0A015K8Z8 entry or part of it D34A) above, with A34D, R42A counted along it
protocol.summary: nucleotide-induced tetramerization, glutaraldehyde cross-linking and SDS-PAGE
test.settings: monomer, 2 μM, 1 mM Mn, pH 6.5; allosteric, cooperative
metric: pEC50
Answers are plain numbers, as −log10 of the molar value.

What is its pEC50 for Ri SAMHD1 (Rhizophagus irregularis, UniProt A0A015K8Z8, R42A)? Entry: Nc1nc2c(ncn2[C@H]2C[C@H](O)[C@@H](COP(=O)(O)OP(=O)(O)OP(=O)(O)O)O2)c(=O)[nH]1
3.22

---

tested.target: Ri SAMHD1 (Rhizophagus irregularis)
Construct: gene RirG_017260; full length (no SAM domain), N-terminal His6-tag, pET28a(+), expressed in E. coli T7 Express in M9 medium with Fe or Mn; purified as monomer and tetramer; crystal model residues 11-451
protocol.summary: nucleotide-induced tetramerization, glutaraldehyde cross-linking and SDS-PAGE
Format: binding
test.settings: monomer, 2 μM, Mn, pH 6.5; allosteric
metric: EC50 (µM)
Give bare numbers, in µM.

I have this molecule here, Nc1nc2c(ncn2[C@@H]2O[C@H](COP(=O)(O)OP(=O)(O)OP(=O)(O)O)[C@@H](O)[C@H]2O)c(=O)[nH]1 , and I need its recorded EC50.
31
